Test system: HS 578T breast
Assay: NCI tumour cell line growth inhibition, 48 h
// reported TGI per item

Example results:
INSERT INTO assay_data (compound, value_measured) VALUES
  ('O=C1C(Cl)=C(Nc2cccc(O)c2)C(=O)N1c1cccc(Cl)c1', '> 100 µM'),
  ('CN(C1=NS(=O)(=O)N=C(N(C)c2ccccc2)O1)c1ccccc1', '69.9 µM'),
  ('OCCN=C1c2ccccc2C2C(c3ccccc31)C1c3ccccc3C(=NCCO)c3ccccc3C21 (stereo not drawn)', '45.7 µM'),
  ('CC1=C(C(=O)NCC(C)O)CC(C(=O)NCC(C)O)=C(C)N1 (stereo not drawn)', '> 100 µM'),
  ('CN[C@@H](C)[C@H](OP(=O)(O)OC1[C@@H](O)[C@H](O)C(O)[C@H](O)[C@@H]1O)c1ccccc1 (stereo partly drawn)', '> 100 µM');

Turning to the following compound.
Prompt: Looking for the measured TGI of `NC12CC3CC4C1CC1CC2C(C3)C4(N)C1` , can you help?
Response: > 100 µM

###

Test system: CCRF-CEM leukemia
Experiment: NCI tumour cell line growth inhibition, 48 h; in the data active means GI50 below about 0.43 µM; inactive means the rest
Hi there, use one of these labels in your reply, thanks! 1.0 = active, 0.0 = inactive

Here's what some known entries look like.
INSERT INTO measurements (compound, answer_label) VALUES
  ('N/C(=N\c1nc2ccccc2s1)NC(=O)Nc1ccccc1Cl', 1.0),
  ('COc1cc(C)[nH]c(=O)c1CN1CCc2c(Cl)cc([C@H](OC)C3COC3)c(Cl)c2C1=O', 0.0),
  ('COC(=O)c1cc2c3c(cc(O)c2[nH]1)N(C(=O)C1Cc2cc(OC)c(OC)c(OC)c2N1)CC3CCl (stereo unspecified)', 1.0),
  ('CCC1CCCCN1C(=S)N/N=C(\C)c1ccccn1 (stereo unspecified)', 1.0),
  ('COc1cc([C@@H]2c3cc4c(cc3[C@H](OC(C)=O)[C@H]3COC(=O)[C@H]23)OCO4)cc(OC)c1OC', 1.0);

Prompt: Given `O=C1c2cccc3cc([N+](=O)[O-])cc(c23)C(=O)N1CCN1CCCC1` , state the outcome it received in this test.
Response: 1.0

###

// reported TGI per item
System: SW-620 colon
Test: NCI tumour cell line growth inhibition, 48 h

INSERT INTO results (molecule, value_measured) VALUES
  ('Clc1ccc2c(NCCNc3ccnc4cc(Cl)ccc34)ccnc2c1', '31.3 µM'),
  ('OCCN=C1c2ccccc2C2C(c3ccccc31)C1c3ccccc3C(=NCCO)c3ccccc3C21 (stereo not drawn)', '> 100 µM'),
  ('O=C(COc1ccc(Cl)cc1)N1N=C(c2ccc([N+](=O)[O-])o2)CC1(O)c1ccccc1 (stereo not drawn)', '21.5 µM');

Prompt: Looking for the measured TGI of COc1cc2cc(C(=O)N3CC(CCl)c4c3cc(N(C)C)c3ccccc43)[nH]c2c(OC)c1OC (stereo not drawn) , can you help?
Response: > 100 µM

Prompt: Looking for the measured TGI of CC1(C)C(=O)C2(OS(=O)(=O)C(F)(F)F)CCC1C2 (stereo not drawn) , can you help?
Response: > 100 µM

Prompt: Looking for the measured TGI of `CCOC(=O)c1cc(=O)oc2c1N(C)c1ncccc1N2` , can you help?
Response: > 100 µM

Prompt: Looking for the measured TGI of O=S1c2ccccc2N=C(c2ccc(Cl)cc2)CC1c1cccs1 (stereo not drawn) , can you help?
Response: 27.5 µM

Prompt: Looking for the measured TGI of `COc1cc(/C=C/C(=O)N[C@@H]2C(=O)N3[C@@H]2SC(C)(C)[C@@H]3C(=O)O)cc(OC)c1OC` , can you help?
Response: > 100 µM

Origin of values: PubChem BioAssay (NCI)
